Test system: CAL51
Experiment: GRmax, 72 h; higher = less effect
endpoint name: GRmax, 72 h

{"molecule": "Cc1nc(Nc2ncc(C(=O)Nc3c(C)cccc3Cl)s2)cc(N2CCN(CCO)CC2)n1 [Dasatinib] (max 10 µM)", "GRmax, 72 h": "0.0983 GR"}

INPUT: Lookup: GRmax, 72 h / CAL51 / CN(C)C/C=C/C(=O)Nc1ccc(C(=O)N2CCC[C@@H](Nc3ncc(Cl)c(-c4c[nH]c5ccccc45)n3)C2)cc1 [THZ531] (max 1 µM)
OUTPUT: 0.559 GR

INPUT: Param readout = GRmax, 72 h; param system = CAL51; param query = CC(C)NC[C@@H](C(=O)N1CCN(c2ncnc3c2[C@H](C)C[C@H]3O)CC1)c1ccc(Cl)cc1 [Ipatasertib/GDC0068] (max 10 µM) ; response: value
OUTPUT: 0.387 GR

INPUT: Test system CAL51; read-out GRmax, 72 h; what value for CNc1nc(-c2ccc3c(N)n[nH]c3c2)cc(N2C[C@@H](C(=O)NC3CCCCC3)CC[C@H]2C)n1 (max 10 µM) ?
OUTPUT: 0.794 GR

INPUT: What measured GRmax, 72 h is associated with CC1(N)CCN(c2cnc(-c3cccc(Cl)c3Cl)c(N)n2)CC1 [SHP099] (max 10 µM) on CAL51?
OUTPUT: 0.904 GR

INPUT: Form entry - test system: CAL51; read-out: GRmax, 72 h; molecule: CC(=O)Nc1cccc(-n2c(=O)n(C3CC3)c(=O)c3c(Nc4ccc(I)cc4F)n(C)c(=O)c(C)c32)c1 (max 1 µM)
OUTPUT: 0.706 GR

INPUT: API: value(readout=GRmax, 72 h, system=CAL51) for record CC(=O)c1c(C)c2cnc(Nc3ccc(N4CCNCC4)cn3)nc2n(C2CCCC2)c1=O (max 3.162 µM)
OUTPUT: 0.361 GR

* * *

Each entry below carries its reported GRmax, 72 h.
Tested on: HCC1143
Assay: GRmax, 72 h; higher = less effect
I only need the number, in GR, no unit after it.

{"compound": "Cc1cc(Nc2ncc(Cl)c(Nc3ccccc3S(=O)(=O)C(C)C)n2)c(OC(C)C)cc1C1CCNCC1 [Ceritinib/LDK378] (max 10 µM)", "system name": "HCC1143", "unit abbreviation": "GR", "GRmax, 72 h": -0.422}
{"compound": "CC(C)NC[C@@H](C(=O)N1CCN(c2ncnc3c2[C@H](C)C[C@H]3O)CC1)c1ccc(Cl)cc1 [Ipatasertib/GDC0068] (max 10 µM)", "system name": "HCC1143", "unit abbreviation": "GR", "GRmax, 72 h": 0.751}
{"compound": "C=CC(=O)Nc1ccc(C(=O)Nc2[nH]nc3c2CN(C(=O)N[C@H](CN(C)C)c2ccccc2)C3(C)C)cc1 [YKL-5-124] (max 10 µM)", "system name": "HCC1143", "unit abbreviation": "GR", "GRmax, 72 h": -0.0844}

INPUT: So what does the record say about GRmax, 72 h for O=C1NC(=NCc2cccs2)SC1=Cc1ccc2ncccc2c1 [R0-3306] (max 10 µM) ?
OUTPUT: -0.114

INPUT: What measured GRmax, 72 h goes with Cc1nn(C)c(COc2ccc(N3CCN(S(=O)(=O)N(C)C)CC3)cc2)c1-c1cccc2c(CCCOc3cccc4ccccc34)c(C(=O)O)n(CCN3CCOCC3)c12 (max 10 µM) ?
OUTPUT: 0.672

INPUT: Requested read-out: GRmax, 72 h. Entry: COc1cccc2c1C(=O)c1c(O)c3c(c(O)c1C2=O)C[C@@](O)(C(=O)CO)C[C@@H]3O[C@H]1C[C@H](N)[C@H](O)[C@H](C)O1 [Doxorubicin] (max 3.162 µM)
OUTPUT: -0.251

* * *

System: SUM149
Experiment: area over the GR curve, 72 h; higher = more effect
Each entry falls into one class according to its area over the GR curve; the ranges are low: < 0.2 GR; moderate: ≥ 0.2 GR and < 0.7 GR; high: ≥ 0.7 GR

Check out these entries, answers already filled in.
{"compound": "Nc1cc(C(F)(F)F)c(-c2cc(N3CCOCC3)nc(N3CCOCC3)n2)cn1 [Buparlisib/NVP-BKM120] (max 10 µM)", "label": "moderate"}
{"compound": "CCc1cncnc1N1CCN(Cc2nc3ccc(C(F)(F)F)cc3[nH]2)CC1 (max 10 µM)", "label": "low"}
{"compound": "CN1CC[C@H](c2c(O)cc(O)c3c(=O)cc(-c4ccccc4Cl)oc23)[C@H](O)C1 [Flavopiridol] (max 1 µM)", "label": "moderate"}
{"compound": "COc1cccc2c1C(=O)c1c(O)c3c(c(O)c1C2=O)C[C@@](O)(C(=O)CO)C[C@@H]3O[C@H]1C[C@H](N)[C@H](O)[C@H](C)O1 [Doxorubicin] (max 3.162 µM)", "label": "high"}
{"compound": "O=C(CCCCCCC(=O)Nc1ccccc1)NO [Vorinostat] (max 10 µM)", "label": "moderate"}
{"compound": "CS(=O)(=O)N1CCN(Cc2cc3nc(-c4cccc5[nH]ncc45)nc(N4CCOCC4)c3s2)CC1 [Pictilisib/GDC0941] (max 10 µM)", "label": "low"}
{"compound": "Cc1nc(Nc2ncc(C(=O)Nc3c(C)cccc3Cl)s2)cc(N2CCN(CCO)CC2)n1 [Dasatinib] (max 10 µM)", "label": "moderate"}

Okay, next one:
INPUT: Into which bin does this compound go? CC[C@@]1(O)C(=O)OCc2c1cc1n(c2=O)Cc2cc3c(CN(C)C)c(O)ccc3nc2-1 [Topotecan] (max 10 µM)
OUTPUT: high

* * *

Tested on: EFM19
Assay: GRmax, 72 h; higher = less effect
Please mark label 1 if the recorded GRmax, 72 h is equal to or greater than 0.2 GR, and label 0 if it falls below.

INPUT: Test whether the molecule COc1cc2c(Oc3ccc4[nH]c(C)cc4c3F)ncnc2cc1OCCCN1CCCC1 [Cediranib/AZD2171] (max 10 µM) records GRmax, 72 h of 0.2 GR or higher.
OUTPUT: label 1

* * *

Tested on: MDAMB453
Assay: area over the GR curve, 72 h; higher = more effect;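 also: Dye Drop or Deep Dye Drop imaging of viable cells in 384-well plates (Hoechst nuclei, LIVE/DEAD dye), nine half-log doses, GR normalized to DMSO controls and time-zero plates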
endpoint name: area over the GR curve (GR)
The reply should be a number in GR, with the unit left off.

INPUT: Consider the compound CC(=O)O[C@H]1C(=O)[C@@]2(C)[C@H]([C@H](OC(=O)c3ccccc3)[C@]3(O)C[C@H](OC(=O)[C@H](O)[C@@H](NC(=O)c4ccccc4)c4ccccc4)C(C)=C1C3(C)C)[C@]1(OC(C)=O)CO[C@@H]1C[C@@H]2O [Paclitaxel] (max 1 µM) and give its measured area over the GR curve.
OUTPUT: 0.658

INPUT: Using the record for C[C@@H]1COCCN1c1cc(C2([S@](C)(=N)=O)CC2)nc(-c2cc[nH]c3nccc2-3)n1 [AZD6738] (max 10 µM) , report its area over the GR curve.
OUTPUT: 0.0984

INPUT: Requested read-out: area over the GR curve. Entry: CC[C@@]1(O)C(=O)OCc2c1cc1n(c2=O)Cc2cc3c(CN(C)C)c(O)ccc3nc2-1 [Topotecan] (max 10 µM)
OUTPUT: 0.926

INPUT: Fill in the blank: the reported area over the GR curve of Nc1cc(C(F)(F)F)c(-c2cc(N3CCOCC3)nc(N3CCOCC3)n2)cn1 [Buparlisib/NVP-BKM120] (max 10 µM) is ____.
OUTPUT: 0.331

* * *

GRmax, 72 h values for the compounds below.
System: HCC1419
Experiment: GRmax, 72 h; higher = less effect;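 also: breast cell lines in 384-well plates, nine doses across a 10^4 range, Dye Drop imaging of viable cells vs DMSO and time-zero plates, GR 0 means no net growth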
Just the number please, in GR, no unit attached.

{"compound": "CO[C@@H](C)Cn1c(=O)n(C)c2cnc3ccc(-c4cncc(C(C)(C)O)c4)cc3c21 (max 10 µM)", "system name": "HCC1419", "GRmax, 72 h (GR)": -0.769}
{"compound": "Cc1nc(-c2cn3c(n2)-c2ccc(-c4cnn(C(C)(C)C(N)=O)c4)cc2OCC3)n(C(C)C)n1 [Taselisib/GDC0032] (max 10 µM)", "system name": "HCC1419", "GRmax, 72 h (GR)": -0.405}
{"compound": "NC(=O)Nc1cc(-c2cccc(F)c2)sc1C(=O)N[C@H]1CCCNC1 [AZD7762] (max 10 µM)", "system name": "HCC1419", "GRmax, 72 h (GR)": -0.0826}
{"compound": "CC(C)Nc1cc(-c2c[nH]c(C(=O)N[C@H](CO)c3cccc(Cl)c3)c2)c(Cl)cn1 [BVD523] (max 10 µM)", "system name": "HCC1419", "GRmax, 72 h (GR)": 0.637}
{"compound": "COc1ccc2c(c1)[C@]1(C[C@H]1c1ccc3c(/C=C/c4ccc(CN5C[C@@H](C)O[C@@H](C)C5)cc4)n[nH]c3c1)C(=O)N2", "system name": "HCC1419", "GRmax, 72 h (GR)": 0.32}

INPUT: Record request: GRmax, 72 h value, item COc1cccc2c1C(=O)c1c(O)c3c(c(O)c1C2=O)C[C@@](O)(C(=O)CO)C[C@@H]3O[C@H]1C[C@H](N)[C@H](O)[C@H](C)O1 [Doxorubicin] (max 3.162 µM)
OUTPUT: -0.466

INPUT: Any idea what its GRmax, 72 h is? The compound is CC(C)NC[C@@H](C(=O)N1CCN(c2ncnc3c2[C@H](C)C[C@H]3O)CC1)c1ccc(Cl)cc1 [Ipatasertib/GDC0068] (max 10 µM)
OUTPUT: 0.505
